# Tested on: CDKL5
# Condition Notes: concentration: 1 μM, replicates: in singlicate; n = 1;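 note: KINOMEscan kinase panel screen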
Measured Endpoint: %Inh (%)
Numeric only. Scale: %

Asked: Looking for the measured %Inh of `COc1ccc(NC(=O)c2ccoc2)cc1-c1ccc(C(=O)NCC2CC2)cc1` , can you help?
Given back: 6

Asked: Try the compound `Cc1ccc(NC(=O)c2ccc(Cl)c(Cl)c2)cc1-c1ccc(C(=O)Nc2ccncc2)cc1`
Given back: 4

Asked: Try the compound `CS(=O)(=O)c1cccc(CNc2nc(Nc3ccc4c(c3)CCC(=O)N4)ncc2C(F)(F)F)c1`
Given back: 0

Asked: Try the compound `CN(C)CCOc1ccc(-c2cc(-c3ccc(Cl)c(O)c3)c(-c3ccncc3)[nH]2)cc1.Cl.Cl`
Given back: 0

Asked: Try the compound `CN(C)CCNS(=O)(=O)c1ccc(-c2ccnc3[nH]ccc23)cc1`
Given back: 0

Asked: Try the compound `Nc1ncc(-c2cn[nH]c2)c2scc(-c3ccc4c(c3)CCN4C(=O)Cc3ccccc3)c12`
Given back: 0

Asked: Try the compound `Cl.O=C(Nc1ccc(Oc2ccc3[nH]c(NC(=O)c4ccco4)nc3c2)cc1)Nc1cc(C(F)(F)F)ccc1F`
Given back: 0

Asked: Try the compound `COC(=O)Nc1nc2cc(Oc3ccc(NC(=O)Nc4cccc(SC)c4)cc3)ccc2[nH]1.Cl`
Given back: 0

Asked: Try the compound NCCC(NC(=O)c1cc(Br)c(-c2ccnc3[nH]ccc23)s1)c1ccccc1.O=C(O)C(F)(F)F.O=C(O)C(F)(F)F (centres unmarked)
Given back: 0

Asked: Try the compound `COC(=O)Nc1nc2ccc(Oc3ccc(CC(=O)Nc4cc(C(F)(F)F)ccc4F)cc3)cc2[nH]1`
Given back: 0

Asked: Try the compound `CC(=O)Nc1cn2nc(Oc3cccc(NC(=O)c4cccc(C(F)(F)F)c4)c3)ccc2n1`
Given back: 0

Asked: Try the compound `N#CC1(c2cccc(C(=O)Nc3cccc(Oc4ccc5nc(NC(=O)C6CC6)sc5n4)c3)c2)CC1`
Given back: 0

Asked: Try the compound `Cc1ccccc1CC(=O)N1CCc2cc(-c3cn(C)c4ncnc(N)c34)ccc21`
Given back: 0

Asked: Try the compound `Nc1cccc(-c2ccc3c(N)n[nH]c3c2)c1`
Given back: 0

Asked: Try the compound `N#Cc1cnc2cc(-c3cnc(CNCCN4CCOCC4)s3)ccc2c1Nc1ccc(Oc2ccccc2)cc1`
Given back: 29

Asked: Try the compound `COc1cccc2c(-c3ccncc3)c(-c3ccc(F)cc3)nn12`
Given back: 0

Asked: Try the compound `CN(c1ccc(NC(=O)Nc2cccc(Cl)c2)cc1)c1ccnc(N)n1.Cl`
Given back: 0

###

# Tested on: ROCK1
# Condition Notes: concentration: 1 μM, replicates: in singlicate; n = 1
Assign %Inh to each entry below.
Numeric only. Scale: %

Asked: Form entry - test system: ROCK1; read-out: %Inh; compound: Cl.Cl.NCC(NC(=O)c1cc(-c2cccnc2)c(-c2ccnc3[nH]ccc23)s1)c1ccccc1 (centres unmarked) [GSK1323434]
Given back: 99.7

Asked: Try the compound COc1cc(Nc2ccnc3cc(-c4ccncc4)ccc23)cc(OC)c1OC.Cl [GW494610]
Given back: 31

Asked: Try the compound `N#CC1(c2cccc(C(=O)Nc3cccc(Oc4ccc5nc(NC(=O)C6CC6)sc5n4)c3)c2)CC1`
Given back: 0

Asked: Try the compound Cc1nn2c(=O)cc(N3CCO[C@H](C)C3)nc2n1Cc1cccc(Cl)c1Cl [GSK2373693]
Given back: 73

Asked: Try the compound COc1cccc(NC(=O)NCCNc2ccnc(Nc3ccc(F)cc3)n2)c1 [GSK1379879]
Given back: 6

Asked: Try the compound COC(=O)Nc1nc2cc(Oc3ccc(NC(=O)Nc4cccc(SC)c4)cc3)ccc2[nH]1.Cl [GW697999]
Given back: 82

Asked: Try the compound N#Cc1cnc2cc(-c3cnc(CNCCN4CCOCC4)s3)ccc2c1Nc1ccc(Oc2ccccc2)cc1 [GW664114]
Given back: 0

Asked: Try the compound Cl.Cl.NC(CNC(=O)c1cc(Br)c(-c2ccnc3[nH]ccc23)s1)c1ccccc1 (centres unmarked) [GSK1322949]
Given back: 99.6
